assay: kinetic aqueous solubility (Method A); format: physicochemical; details: water, pH 7, kinetic, water (pH 7), 20 °C; read-out: aq solubility pH 7
Measured endpoint: solubility at 15 min

Field: example entries. Status: answers known.
[
  {
    "Molecule": "O=[N+]([O-])c1cn2c(n1)OC(COc1cccc(-c3ccc(F)cc3)n1)CC2 (stereo not drawn)",
    "solubility at 15 min": "0.027 µg/mL"
  },
  {
    "Molecule": "O=[N+]([O-])c1cn2c(n1)OC(COCc1ccc(-c3ccc(OC(F)(F)F)cc3)cc1)CC2 (stereo not drawn)",
    "solubility at 15 min": "0.058 µg/mL"
  },
  {
    "Molecule": "O=[N+]([O-])c1cn2c(n1)OC(COc1ncc(-c3ccc(F)cc3)cn1)CC2 (stereo not drawn)",
    "solubility at 15 min": "1.8 µg/mL"
  }
]

Please look up its solubility at 15 min: O=[N+]([O-])c1cn2c(n1)OC(COc1ccc(-c3ccc(F)cc3F)cn1)CC2 (stereo not drawn)
0.13 µg/mL

Please look up its solubility at 15 min: O=[N+]([O-])c1cn2c(n1)OC(COc1cnc(-c3ccc(F)cc3)nc1)CC2 (stereo not drawn)
0.59 µg/mL

Please look up its solubility at 15 min: O=[N+]([O-])c1cn2c(n1)OC(COc1ccc(-c3ccc(F)nc3)cc1)CC2 (stereo not drawn)
0.36 µg/mL
